As a worked illustration, we turn to log10 Kd data collected for ATP-dependent translocase ABCB1 (Homo sapiens).
propertyMeasured: log10 Kd (log10 of the value in nM)

> print(dat)
                                   compound  propertymeasured  endpointvalue
1  O=c1cc(-c2ccccc2)oc2cc(OCc3ccccc3)cc(O)c12          log10 Kd           1.83
2  O=c1cc(-c2ccc(O)cc2)oc2cc(O)cc(O)c12 [APIGENIN]          log10 Kd           4.00
3   O=c1cc(-c2ccc(F)c(F)c2)oc2cc(O)cc(O)c12          log10 Kd           3.80
4       COc1cc2oc(-c3ccccc3)cc(=O)c2c(O)c1C          log10 Kd           3.11
5    CC(C)Oc1cc(O)c2c(=O)cc(-c3ccccc3)oc2c1          log10 Kd           3.00
6  C=CC(C)(C)c1c(O)cc(O)c2c(=O)cc(-c3ccccc3)oc12          log10 Kd           2.30
7      O=c1cc(-c2ccc(I)cc2)oc2cc(O)cc(O)c12          log10 Kd           3.34
8  O=c1cc(-c2ccccc2)oc2c(Cc3ccccc3)c(O)c(Cc3ccccc3)c(O)c12          log10 Kd           1.56
